# experimentalSystem: human TLR7 (Homo sapiens (Human))
# Sequence (Q9NYK1 27-1049): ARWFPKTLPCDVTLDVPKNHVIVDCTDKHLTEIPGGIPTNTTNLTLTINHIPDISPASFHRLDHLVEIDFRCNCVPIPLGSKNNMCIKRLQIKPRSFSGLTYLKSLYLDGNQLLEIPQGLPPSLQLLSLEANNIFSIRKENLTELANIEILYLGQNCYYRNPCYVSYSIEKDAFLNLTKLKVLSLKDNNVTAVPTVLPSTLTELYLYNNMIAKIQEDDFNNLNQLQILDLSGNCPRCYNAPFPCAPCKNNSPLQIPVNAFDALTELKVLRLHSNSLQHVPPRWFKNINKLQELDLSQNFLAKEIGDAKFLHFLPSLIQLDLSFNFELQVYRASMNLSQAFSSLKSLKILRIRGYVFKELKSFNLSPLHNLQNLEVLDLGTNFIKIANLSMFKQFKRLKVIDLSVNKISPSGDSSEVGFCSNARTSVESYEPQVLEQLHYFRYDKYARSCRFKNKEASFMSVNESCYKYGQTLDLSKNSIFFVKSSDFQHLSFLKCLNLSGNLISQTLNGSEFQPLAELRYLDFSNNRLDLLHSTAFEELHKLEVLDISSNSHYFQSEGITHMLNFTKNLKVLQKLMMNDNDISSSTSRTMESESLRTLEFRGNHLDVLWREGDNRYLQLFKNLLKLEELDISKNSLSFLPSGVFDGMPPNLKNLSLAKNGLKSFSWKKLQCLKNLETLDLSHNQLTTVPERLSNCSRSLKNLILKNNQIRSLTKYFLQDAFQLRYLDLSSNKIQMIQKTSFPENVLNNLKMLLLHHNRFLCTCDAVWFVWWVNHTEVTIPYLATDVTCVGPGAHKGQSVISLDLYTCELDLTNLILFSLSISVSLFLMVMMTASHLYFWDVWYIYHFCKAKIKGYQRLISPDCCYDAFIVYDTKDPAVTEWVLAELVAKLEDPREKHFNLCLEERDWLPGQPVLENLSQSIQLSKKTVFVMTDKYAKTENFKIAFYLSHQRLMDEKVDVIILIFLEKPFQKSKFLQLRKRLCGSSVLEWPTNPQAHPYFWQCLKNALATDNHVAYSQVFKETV
# protocolNotes: TLR7 inhibition reporter assay (HEK-Blue SEAP)
# Assay type: cell-based
# experimentalConditions: HEK-Blue cells overexpressing human TLR7, gardiquimod 7.5 μM stimulation, SEAP reporter
pIC50: −log10 of the molar value.
measuredEndpoint: pIC50

Before answering, review these 2 worked examples.
Which measured pIC50 value corresponds to COCC(C)N1CCN(c2ccc3[nH]c(-c4cc(OC)c5ncnn5c4)c(C(C)C)c3n2)CC1 (stereo not drawn) ?
8.66

Data request, read-out pIC50, for COc1cc(-c2[nH]c3ccc(C4CCC(N5CCCC5)CC4)nc3c2C(C)C)cn2ncnc12 (stereo not drawn) [Example 195]
9.10

[P] COc1ncc(CN(C)C2CCN(c3ccc4[nH]c(-c5cn6ncnc6c(C)c5C)c(C(C)C)c4n3)CC2)cn1
[Q] COc1cc(-c2[nH]c3ccc(C4CCC(N(C)C(C)C)CC4)nc3c2C(C)C)cn2ncnc12 (stereo not drawn) [Example 170]
[R] Cc1c(-c2[nH]c3ccc(C4CCC(N(C)CCC#N)CC4)nc3c2C(C)C)cn2ncnc2c1C (stereo not drawn) [Example 366]
Arrange these compounds by their pIC50, starting with the largest number. A complete answer lists every label in the requested sequence.
P, Q, R
